Parameter pKd: see the listing below.
measurement-target: T1, recombinant human IL-36R extracellular domain expressed with a C-terminal myc-myc-hexahistidine tag (human, UniProt Q9HB29 20-337)
T1 construct: also called hIL-36R-MMH; hIL-36R.mmH
T1 sequence (Q9HB29 other isoform, or with tags, fused parts or gaps limits assumed): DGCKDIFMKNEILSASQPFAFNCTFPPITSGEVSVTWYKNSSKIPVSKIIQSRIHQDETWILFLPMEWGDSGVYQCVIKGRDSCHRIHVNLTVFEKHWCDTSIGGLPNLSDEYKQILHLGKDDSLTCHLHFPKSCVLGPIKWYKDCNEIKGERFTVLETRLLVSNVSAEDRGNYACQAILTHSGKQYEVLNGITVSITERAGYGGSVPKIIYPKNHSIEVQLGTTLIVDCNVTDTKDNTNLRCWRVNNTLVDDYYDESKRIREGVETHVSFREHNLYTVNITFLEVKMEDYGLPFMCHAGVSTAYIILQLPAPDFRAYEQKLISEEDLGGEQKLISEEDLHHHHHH
experiment: SPR (Biacore 4000), mAb captured on anti-human Fc, 25°C
Keep it numeric: pKd is minus log10 of the concentration in mol/L.

Reference set, count: 2
INSERT INTO measurements (binder, test_value) VALUES
  ('H4H14709P (antibody, human IgG4 S228P, kappa, V domains shown) VH: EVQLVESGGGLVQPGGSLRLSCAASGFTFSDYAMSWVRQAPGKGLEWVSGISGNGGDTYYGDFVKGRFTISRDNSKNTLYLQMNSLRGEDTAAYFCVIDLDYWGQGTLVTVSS VL: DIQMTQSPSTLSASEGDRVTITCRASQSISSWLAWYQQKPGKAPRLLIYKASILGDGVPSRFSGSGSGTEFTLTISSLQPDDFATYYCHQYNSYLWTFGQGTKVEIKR', 8.39),
  ('H4H14708P2 (antibody, human IgG4 S228P, kappa, V domains shown) VH: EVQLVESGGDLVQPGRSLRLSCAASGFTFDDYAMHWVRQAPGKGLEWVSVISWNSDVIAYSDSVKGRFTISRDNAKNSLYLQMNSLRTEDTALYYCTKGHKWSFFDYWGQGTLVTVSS VL: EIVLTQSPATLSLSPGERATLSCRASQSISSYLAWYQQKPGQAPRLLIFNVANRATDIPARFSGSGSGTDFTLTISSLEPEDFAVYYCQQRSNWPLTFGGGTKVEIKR', 8.17);

# ---- query binder ----
Please report the measured pKd for H4H14699P2 (antibody, human IgG4 S228P, kappa, V domains shown, Fully human anti-IL-36R antibody) VH: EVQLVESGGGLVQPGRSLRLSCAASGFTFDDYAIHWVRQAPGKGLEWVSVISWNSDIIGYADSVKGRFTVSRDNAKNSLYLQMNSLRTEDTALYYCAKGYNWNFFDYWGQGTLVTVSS VL: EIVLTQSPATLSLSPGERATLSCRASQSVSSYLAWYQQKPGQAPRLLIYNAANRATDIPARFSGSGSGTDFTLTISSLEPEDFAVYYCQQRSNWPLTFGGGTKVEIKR
7.99

Where do these numbers come from? They come from patent US20200017592A1.
